Recorded Delta Abs Peak (wavelength maximum of absorbance difference spectrum) values for a group of molecules are listed next.
Biological target: WT BM3 heme domain (Priestia megaterium, UniProt P14779)
Construct: The BM3 heme domain proteins (WT and the DM A82F/F87V variant) used in this study were expressed as described in our previous studies; made in house; host or cells: E. coli BL21 (DE3)
Sequence (P14779 2-472): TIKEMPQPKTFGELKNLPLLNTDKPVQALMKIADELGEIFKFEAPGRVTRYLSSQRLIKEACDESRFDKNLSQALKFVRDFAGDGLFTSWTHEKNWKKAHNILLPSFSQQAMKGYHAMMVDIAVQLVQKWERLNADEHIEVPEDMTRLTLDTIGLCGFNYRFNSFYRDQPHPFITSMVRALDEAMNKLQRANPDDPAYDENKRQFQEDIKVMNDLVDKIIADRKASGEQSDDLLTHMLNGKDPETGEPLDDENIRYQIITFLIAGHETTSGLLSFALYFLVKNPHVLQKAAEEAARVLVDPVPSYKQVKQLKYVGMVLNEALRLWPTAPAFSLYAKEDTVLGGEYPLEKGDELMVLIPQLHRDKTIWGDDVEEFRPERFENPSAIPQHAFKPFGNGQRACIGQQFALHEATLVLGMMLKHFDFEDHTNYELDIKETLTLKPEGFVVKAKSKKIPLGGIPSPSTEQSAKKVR
Assay: biochemical
Assay type: binding, Bacillus megaterium
Settings: WT BM3 heme domain
observedProperty: Delta Abs Peak (wavelength maximum of absorbance difference spectrum) (nm)

molecule	recordedValue
Clc1ccc(CCC(Cn2ccnc2)Sc2c(Cl)cccc2Cl)cc1 (stereo not shown) [Butoconazole nitrate]	434
Clc1ccc(C(Cn2ccnc2)OCc2ccc(Sc3ccccc3)cc2)c(Cl)c1 (stereo not shown) [Fenticonazole nitrate]	434
Clc1ccc(C(Cn2ccnc2)OCc2ccsc2Cl)c(Cl)c1 (stereo not shown) [Tioconazole]	434
c1ccc(-c2ccc(C(c3ccccc3)n3ccnc3)cc2)cc1 (stereo not shown) [Bifonazole]	434
Clc1ccc(C(Cn2ccnc2)OCc2csc3c(Cl)cccc23)c(Cl)c1 (stereo not shown) [Sertaconazole nitrate]	439
Clc1ccc(C(Cn2ccnc2)OCc2c(Cl)cccc2Cl)c(Cl)c1 (stereo not shown) [Isoconazole nitrate]	436
CC(C)(C)C(=O)C(Oc1ccc(Cl)cc1)n1ccnc1 (stereo not shown) [Climbazole]	433
